- TARGET: T1, human Y2 receptor (human, UniProt P49146 1-381)
- T1 construct: whole, on cells; used as membrane fraction of hY2R/CHO cells; also called human NPY2R; hY2R
- T1 sequence (looked up): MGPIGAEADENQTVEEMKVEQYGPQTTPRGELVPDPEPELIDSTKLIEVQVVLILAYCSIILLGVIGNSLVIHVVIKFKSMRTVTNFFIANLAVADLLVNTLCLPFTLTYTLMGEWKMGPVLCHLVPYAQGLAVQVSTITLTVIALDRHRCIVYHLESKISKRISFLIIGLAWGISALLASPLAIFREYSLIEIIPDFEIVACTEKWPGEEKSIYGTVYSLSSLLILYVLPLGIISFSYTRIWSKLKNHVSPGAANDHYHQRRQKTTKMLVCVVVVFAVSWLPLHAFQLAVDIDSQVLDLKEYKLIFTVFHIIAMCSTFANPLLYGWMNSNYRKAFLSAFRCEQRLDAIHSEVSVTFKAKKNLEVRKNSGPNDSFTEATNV
- METHOD_SUMMARY: RBA: [125I]-PYY displacement, hY2R/CHO membranes
- Description: After incubation at room temperature for 60 minutes, the mixture was filtered through the cell harvester FilterMate (PerkinElmer) using UniFilter-96 GF/C treated with polyethylenimine (PEI) solution (20 mM Tris, 0.3% PEI, pH 7.4), and the filter was washed 3 times with a filtering buffer (50 mM Tris, 5 mM MgCl₂, 150 mM NaCl, 0.03% NaN₃, 0.05% CHAPS, pH 7.4). […] The data obtained were analyzed using Prism to calculate the IC₅₀ value.
Non-standard residues stand in square brackets, D forms with d. No end group written: not given here. *: point of attachment. 4‑guanidinomethylbenzoyl = N=C(N)NCc1ccc(C(=O)*)cc1; Phe(4-NH2) = Nc1ccc(C[C@H](N)C(=O)O)cc1; Cha = N[C@@H](CC1CCCCC1)C(=O)O; 4Amb = NCc1ccc(C(=O)O)cc1; Nle = CCCC[C@H](N)C(=O)O; Dap = NC[C@H](N)C(=O)O; Aib = CC(C)(N)C(=O)O; Bz = O=C(c1ccccc1)*; Carbamoyl = NC(=O)*

| BINDER | IC50 Ratio (vs PYY(3-36)) [ratio] |
| --- | --- |
| {4‑guanidinomethylbenzoyl}-RAYINLITRQRY-NH2 (SMILES CC[C@H](C)[C@H](NC(=O)[C@H](Cc1ccc(O)cc1)NC(=O)[C@H](C)NC(=O)[C@H](CCCNC(=N)N)NC(=O)c1ccc(CNC(=N)N)cc1)C(=O)N[C@@H](CC(N)=O)C(=O)N[C@@H](CC(C)C)C(=O)N[C@H](C(=O)N[C@H](C(=O)N[C@@H](CCCNC(=N)N)C(=O)N[C@@H](CCC(N)=O)C(=O)N[C@@H](CCCNC(=N)N)C(=O)N[C@@H](Cc1ccc(O)cc1)C(N)=O)[C@@H](C)O)[C@@H](C)CC, also called compound No. 4) [4-Guanidinomethylbenzoyl-[Ala26, Ile28,31]-PYY(25-36)] | 2.4 |
| [4Amb]RGYINLITRQRY-NH2 (N-terminus assumed; SMILES CC[C@H](C)[C@H](NC(=O)[C@H](Cc1ccc(O)cc1)NC(=O)CNC(=O)[C@H](CCCNC(=N)N)NC(=O)c1ccc(CN)cc1)C(=O)N[C@@H](CC(N)=O)C(=O)N[C@@H](CC(C)C)C(=O)N[C@H](C(=O)N[C@H](C(=O)N[C@@H](CCCNC(=N)N)C(=O)N[C@@H](CCC(N)=O)C(=O)N[C@@H](CCCNC(=N)N)C(=O)N[C@@H](Cc1ccc(O)cc1)C(N)=O)[C@@H](C)O)[C@@H](C)CC, also called compound No. 50) [4-Aminomethylbenzoyl-[Gly26, Ile28,31]-PYY(25-36)] | 7.1 |
| Ac-S[dP]RH[Cha][Cha]NL[Aib]TRQRY-NH2 (SMILES CC(=O)N[C@@H](CO)C(=O)N1CCC[C@@H]1C(=O)N[C@@H](CCCNC(=N)N)C(=O)N[C@@H](Cc1c[nH]cn1)C(=O)N[C@@H](CC1CCCCC1)C(=O)N[C@@H](CC1CCCCC1)C(=O)N[C@@H](CC(N)=O)C(=O)N[C@@H](CC(C)C)C(=O)NC(C)(C)C(=O)N[C@H](C(=O)N[C@@H](CCCNC(=N)N)C(=O)N[C@@H](CCC(N)=O)C(=O)N[C@@H](CCCNC(=N)N)C(=O)N[C@@H](Cc1ccc(O)cc1)C(N)=O)[C@@H](C)O, also called compound No. 142) [Ac-[D-Pro24, Cha27,28, Aib31]-PYY(23-36)] | 3.2 |
| [4Amb]RAYINLITRQR[Phe(4-NH2)]-NH2 (N-terminus assumed; SMILES CC[C@H](C)[C@H](NC(=O)[C@H](Cc1ccc(O)cc1)NC(=O)[C@H](C)NC(=O)[C@H](CCCNC(=N)N)NC(=O)c1ccc(CN)cc1)C(=O)N[C@@H](CC(N)=O)C(=O)N[C@@H](CC(C)C)C(=O)N[C@H](C(=O)N[C@H](C(=O)N[C@@H](CCCNC(=N)N)C(=O)N[C@@H](CCC(N)=O)C(=O)N[C@@H](CCCNC(=N)N)C(=O)N[C@@H](Cc1ccc(N)cc1)C(N)=O)[C@@H](C)O)[C@@H](C)CC, also called compound No. 12) [4-Aminomethylbenzoyl-[Ala26, Ile28,31, Phe(4NH2)36]-PYY(25-36)] | 12 |
| [4Amb]RAYINL[Nle]TRQRY-NH2 (N-terminus assumed; SMILES CCCC[C@H](NC(=O)[C@H](CC(C)C)NC(=O)[C@H](CC(N)=O)NC(=O)[C@@H](NC(=O)[C@H](Cc1ccc(O)cc1)NC(=O)[C@H](C)NC(=O)[C@H](CCCNC(=N)N)NC(=O)c1ccc(CN)cc1)[C@@H](C)CC)C(=O)N[C@H](C(=O)N[C@@H](CCCNC(=N)N)C(=O)N[C@@H](CCC(N)=O)C(=O)N[C@@H](CCCNC(=N)N)C(=O)N[C@@H](Cc1ccc(O)cc1)C(N)=O)[C@@H](C)O, also called compound No. 42) [4-Aminomethylbenzoyl-[Ala26, Ile28, Nle31]-PYY(25-36)] | 10 |
| Carbamoyl-D[dP]RH[Cha][Cha]NL[Aib]TRQR[Cha]-NH2 (SMILES CC(C)C[C@H](NC(=O)[C@H](CC(N)=O)NC(=O)[C@H](CC1CCCCC1)NC(=O)[C@H](CC1CCCCC1)NC(=O)[C@H](Cc1c[nH]cn1)NC(=O)[C@H](CCCNC(=N)N)NC(=O)[C@H]1CCCN1C(=O)[C@H](CC(=O)O)NC(N)=O)C(=O)NC(C)(C)C(=O)N[C@H](C(=O)N[C@@H](CCCNC(=N)N)C(=O)N[C@@H](CCC(N)=O)C(=O)N[C@@H](CCCNC(=N)N)C(=O)N[C@@H](CC1CCCCC1)C(N)=O)[C@@H](C)O, also called compound No. 161; ureido-[Asp23,D-Pro24,Cha27,28,36,Aib31]-PYY(23-36)) [Carbamoyl-[Asp23, D-Pro24, Cha27,28,36, Aib31]-PYY(23-36)] | 4.1 |
| Bz-RH[Dap]INWITRQR[Cha]-NH2 (SMILES CC[C@H](C)[C@H](NC(=O)[C@H](CN)NC(=O)[C@H](Cc1c[nH]cn1)NC(=O)[C@H](CCCNC(=N)N)NC(=O)c1ccccc1)C(=O)N[C@@H](CC(N)=O)C(=O)N[C@@H](Cc1c[nH]c2ccccc12)C(=O)N[C@H](C(=O)N[C@H](C(=O)N[C@@H](CCCNC(=N)N)C(=O)N[C@@H](CCC(N)=O)C(=O)N[C@@H](CCCNC(=N)N)C(=O)N[C@@H](CC1CCCCC1)C(N)=O)[C@@H](C)O)[C@@H](C)CC, also called compound No. 67) [Benzoyl-[Dap27, Ile28,31, Trp30, Cha36]-PYY(25-36)] | 34 |
| Ac-SGRH[Cha][Cha]NL[Aib]TRQR[Cha]-NH2 (SMILES CC(=O)N[C@@H](CO)C(=O)NCC(=O)N[C@@H](CCCNC(=N)N)C(=O)N[C@@H](Cc1c[nH]cn1)C(=O)N[C@@H](CC1CCCCC1)C(=O)N[C@@H](CC1CCCCC1)C(=O)N[C@@H](CC(N)=O)C(=O)N[C@@H](CC(C)C)C(=O)NC(C)(C)C(=O)N[C@H](C(=O)N[C@@H](CCCNC(=N)N)C(=O)N[C@@H](CCC(N)=O)C(=O)N[C@@H](CCCNC(=N)N)C(=O)N[C@@H](CC1CCCCC1)C(N)=O)[C@@H](C)O, also called compound No. 112) [Ac-[Gly24, Cha27,28,36, Aib31]-PYY(23-36)] | 6.3 |
